- System Tested: VR1 (human) (Homo sapiens, UniProt Q8NER1)
- Construct: expressed in transfected cells; host or cells: CHO K1 cells (ECACC), stably transfected
- Sequence (Q8NER1 whole entry): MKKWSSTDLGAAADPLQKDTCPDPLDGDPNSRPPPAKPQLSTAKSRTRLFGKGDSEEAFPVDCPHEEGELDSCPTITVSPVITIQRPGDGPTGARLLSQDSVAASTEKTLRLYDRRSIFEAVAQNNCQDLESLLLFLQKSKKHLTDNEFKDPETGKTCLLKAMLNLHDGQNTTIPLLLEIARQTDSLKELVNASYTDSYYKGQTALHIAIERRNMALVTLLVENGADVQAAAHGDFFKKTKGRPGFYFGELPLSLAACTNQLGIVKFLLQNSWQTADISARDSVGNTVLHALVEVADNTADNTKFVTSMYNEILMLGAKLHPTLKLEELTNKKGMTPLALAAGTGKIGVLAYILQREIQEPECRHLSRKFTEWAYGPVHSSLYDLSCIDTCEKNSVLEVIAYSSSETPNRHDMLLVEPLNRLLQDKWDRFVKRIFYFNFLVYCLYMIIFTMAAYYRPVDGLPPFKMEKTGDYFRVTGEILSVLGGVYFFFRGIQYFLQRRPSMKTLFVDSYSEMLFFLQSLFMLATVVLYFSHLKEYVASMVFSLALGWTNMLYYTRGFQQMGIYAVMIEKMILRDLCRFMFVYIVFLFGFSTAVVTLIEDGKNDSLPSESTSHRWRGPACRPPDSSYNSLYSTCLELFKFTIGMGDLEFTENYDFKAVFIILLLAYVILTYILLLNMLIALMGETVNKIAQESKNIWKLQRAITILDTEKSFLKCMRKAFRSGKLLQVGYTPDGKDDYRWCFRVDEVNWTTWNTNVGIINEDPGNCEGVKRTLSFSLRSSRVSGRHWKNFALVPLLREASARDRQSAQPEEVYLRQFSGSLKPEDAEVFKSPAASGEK
- Experiment Description: Functional study on vanilloid receptor (VR1), FLIPR Ca2+ assay in CHO K1 cells stably transfected with the VR1 gene
- Assay type: cell-based
- Condition Details: CHO-K1, test compound 10 μM, 5 min incubation, then 100 nM capsaicin; compared to 10 μM CP
Tag: 1 (yes) if measured inhibition at 10 µM is not below 50%, 0 (no) if it is.

These solved cases illustrate the format of a correct answer.
>>> assigned_category("CC(C)c1ccc(C=C2SC(N3CCSCC3)=NC2=O)cc1 [Example 136]")
"1 (yes)"
>>> assigned_category("Cc1ccc(N2CCN(C3=NC(=O)C(=CC=Cc4ccccc4)S3)CC2)nn1 [Example 161]")
"0 (no)"
>>> assigned_category("COc1ccc(C=C2SC(N3CCOCC3)=NC2=O)cc1 [Example 228]")
"0 (no)"
>>> assigned_category("O=C1N=C(N2CCOCC2)SC1=Cc1ccc(OCc2ccccc2)cc1 [Example 21]")
"0 (no)"
>>> assigned_category("CCN(CC)c1ccc(C=C2SC(N3CCOCC3)=NC2=O)cc1 [Example 223]")
"1 (yes)"

Input line: Decide: is the reported value of inhibition at 10 µM for O=C1N=C(N2CCSCC2)SC1=Cc1cccc(C(=O)N2CCN(c3ncc(C(F)(F)F)cc3Cl)CC2)c1 [Example 113] equal to or greater than 50%?
Output line: 1 (yes)

Input line: Decide: is the reported value of inhibition at 10 µM for CC1CN(C(=O)c2cccc(C=C3SC(N4CCSCC4)=NC3=O)c2)CCN1c1ncccc1Cl (stereo not drawn) [Example 110] equal to or greater than 50%?
Output line: 0 (no)

Input line: Decide: is the reported value of inhibition at 10 µM for CCN(CC)C1=NC(=O)C(=Cc2cccc(C(F)(F)F)c2)S1 [Example 214] equal to or greater than 50%?
Output line: 1 (yes)
